Molecular target: PfRH5 from Plasmodium falciparum strain RF7 (Plasmodium falciparum)
Assay: cell-based or functional assay
Test Readout: Max growth inhibition (%)
Be sure to follow the number with its unit.

GET /values?readout=Max growth inhibition (%)&item= H1H29100P (antibody, V domains shown) VH: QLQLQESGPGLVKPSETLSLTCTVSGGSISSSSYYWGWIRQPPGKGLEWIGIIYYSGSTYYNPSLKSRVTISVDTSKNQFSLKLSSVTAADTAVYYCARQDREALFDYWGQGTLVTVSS VL: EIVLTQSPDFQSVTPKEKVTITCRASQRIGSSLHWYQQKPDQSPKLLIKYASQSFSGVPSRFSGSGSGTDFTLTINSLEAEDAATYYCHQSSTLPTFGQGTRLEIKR
17%
